- systemUnderTest: Geranylgeranyl transferase type I (Homo sapiens, UniProt P49354+P53609)
- testProtocol: Inhibition of [3H]GGPP incorporation by Protein Geranylgeranyl transferase type I
resultType: IC50 (µM)
Numbers only, in µM.

molecule: C[S+]([O-])CC[C@H](NC(=O)[C@H]1O[C@H](CNC(=O)[C@@H](N)CSSC(C)(C)C)CC[C@@H]1OCc1ccccc1)C(=O)O (stereo not given in full)
systemUnderTest: Geranylgeranyl transferase type I (Homo sapiens, UniProt P49354+P53609)
IC50, µM: 521
--
molecule: CC(C)C[C@H](NC(=O)[C@H]1O[C@H](CNC(=O)[C@@H](N)CSSC(C)(C)C)CC[C@@H]1OCc1ccccc1)C(=O)O
systemUnderTest: Geranylgeranyl transferase type I (Homo sapiens, UniProt P49354+P53609)
IC50, µM: 206
--
molecule: CSCC[C@H](NC(=O)[C@H]1O[C@H](CNC(=O)[C@@H](N)CSSC(C)(C)C)CC[C@@H]1OCc1ccccc1)C(=O)O
systemUnderTest: Geranylgeranyl transferase type I (Homo sapiens, UniProt P49354+P53609)
IC50, µM: 48

Switching to the query record.
molecule "C=C(N[C@@H](CCSC)C(=O)O)[C@H]1O[C@H](CNC(=O)[C@@H](N)CSSC(C)(C)C)CC[C@@H]1OCc1ccccc1" , IC50 observed: 311

###

- systemUnderTest: Protein farnesyltransferase (Homo sapiens, UniProt P49354+P49356)
- testProtocol: Inhibition of [3H]FPP incorporation by Protein Farnesyltransferase
resultType: pIC50
One number for each entry, as −log10 of the molar value.

compound: CSCC[C@H](NC(=O)[C@H]1O[C@@H](CNC(=O)[C@@H](N)CSSC(C)(C)C)CC[C@@H]1OCc1ccccc1)C(=O)O
pIC50: 6.60

Switching to the query record.
Value sought: pIC50, system Protein farnesyltransferase (Homo sapiens, UniProt P49354+P49356), item C[S+]([O-])CC[C@H](NC(=O)[C@H]1O[C@H](CNC(=O)[C@@H](N)CSSC(C)(C)C)CC[C@@H]1OCc1ccccc1)C(=O)O (stereo partly drawn) . Result: 4.04

###

- systemUnderTest: Geranylgeranyl transferase type I (Homo sapiens, UniProt P49354+P53609)
- testProtocol: Inhibition of [3H]GGPP incorporation by Protein Geranylgeranyl transferase type I
resultType: pIC50
Numbers only, as −log10 of the molar value.

Hi! Can you tell me pIC50 for each of these compounds?
1. C=C(N[C@@H](CCSC)C(=O)O)[C@H]1O[C@@H](CNC(=O)[C@@H](N)CSSC(C)(C)C)CC[C@@H]1OCc1ccccc1
2. C=C(N[C@@H](CC(C)C)C(=O)O)[C@H]1O[C@@H](CNC(=O)[C@@H](N)CSSC(C)(C)C)CCC1O (some centres undefined)
3. CC(C)C[C@H](NC(=O)[C@H]1O[C@@H](CNC(=O)[C@@H](N)CSSC(C)(C)C)CC[C@@H]1OCc1ccccc1)C(=O)O

1: 3.30; 2: 3.58; 3: 4.85

###

- systemUnderTest: Protein farnesyltransferase (Homo sapiens, UniProt P49354+P49356)
- testProtocol: Inhibition of [3H]FPP incorporation by Protein Farnesyltransferase
resultType: IC50 (µM)
One number for each entry, in µM.

compound: CC(C)C[C@H](NC(=O)[C@H]1O[C@@H](CNC(=O)[C@@H](N)CSSC(C)(C)C)CC[C@@H]1OCc1ccccc1)C(=O)O
IC50, µM: 57

compound: C[S+]([O-])CC[C@H](NC(=O)[C@H]1O[C@@H](CNC(=O)[C@@H](N)CSSC(C)(C)C)CC[C@@H]1OCc1ccccc1)C(=O)O (some centres not stated)
IC50, µM: 2.2

compound: CC[C@H](C)[C@H](NC(=O)[C@@H](NC(=O)[C@@H](N)CS)C(C)C)C(=O)N[C@@H](CCSC)C(=O)O
IC50, µM: 0.42

Hi! Can you tell me IC50 for each of these compounds?
1. CSCC[C@H](NC(=O)[C@H]1O[C@H](CNC(=O)[C@@H](N)CSSC(C)(C)C)CC[C@@H]1OCc1ccccc1)C(=O)O
2. CC(C)C[C@H](NC(=O)[C@H]1O[C@H](CNC(=O)[C@@H](N)CSSC(C)(C)C)CC[C@@H]1OCc1ccccc1)C(=O)O

[42, 321]
